Provide the reported inhibition in vivo at 3.2 mg/kg of each item.
# Tested on: Rattus norvegicus
# PROTOCOL_DESCRIPTION: Ex vivo displacement of [125]oCRF from CRF1 receptor in rat pituitary at 3.2 mg/kg, po
# Assay type: functional
Numbers only, in %.

* CCC(CC)Oc1cc(C)nc(Oc2c(C)cc(OC)cc2C)c1C | 55
* CCC(CC)Oc1cc(C)nc(Oc2c(C)cc(Br)cc2C)c1C | 84
* CCC(CC)Oc1cc(C)nc(Oc2c(C)cc(Cl)cc2C)c1C | 76
* CCC(CC)Oc1cc(C)nc(Oc2c(C)cc(C(N)=O)cc2C)c1C | 15
* CCC(CC)Oc1cc(C)nc(Oc2c(C)cc(COC)cc2C)c1C | 12
* CCOc1cc(C)c(Oc2nc(C)cc(OC(CC)CC)c2C)c(C)c1 | 33
* CCC(CC)Oc1cc(C)nc(Oc2c(C)cc(CO)cc2C)c1C | -20

With those in mind, consider the next compound.
Which inhibition in vivo at 3.2 mg/kg reading was recorded for the compound "CCC(CC)Oc1cc(C)nc(Oc2c(C)cc(C)cc2C)c1C" ?
72

====

# PROTOCOL_DESCRIPTION: Solubility at pH 7
# Assay type: physicochemical
# EXPERIMENTAL_CONTEXT: buffer
ATTRIBUTE_MEASURED: solubility
The reply should read as a number followed by its unit.

// returns reported solubility for input "CCC(CC)Oc1cc(C)nc(Oc2c(C)cc(C)cc2C)c1C"
0.2 µg/mL

====

# MEASURED_ON: Corticotropin-releasing factor receptor 1 (Homo sapiens)
# Sequence (P34998 whole entry): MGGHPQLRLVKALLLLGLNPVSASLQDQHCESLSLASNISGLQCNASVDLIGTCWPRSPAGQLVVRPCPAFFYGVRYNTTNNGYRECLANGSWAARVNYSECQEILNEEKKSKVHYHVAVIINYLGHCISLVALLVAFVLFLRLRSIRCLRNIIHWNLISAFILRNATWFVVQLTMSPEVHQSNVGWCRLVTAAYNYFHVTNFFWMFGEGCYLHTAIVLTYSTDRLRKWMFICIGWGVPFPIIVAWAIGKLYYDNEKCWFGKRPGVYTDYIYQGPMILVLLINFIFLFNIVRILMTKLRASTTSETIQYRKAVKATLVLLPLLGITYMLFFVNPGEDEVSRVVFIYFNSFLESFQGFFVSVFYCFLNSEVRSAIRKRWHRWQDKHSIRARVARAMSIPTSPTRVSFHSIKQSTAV
# PROTOCOL_DESCRIPTION: Antagonist activity at human CRF1 receptor endogenously expressed in human IMR32 cells
ATTRIBUTE_MEASURED: Ki (nM)
Give bare numbers, in nM.

Return reported Ki; argument: "CCC(CC)Oc1cc(C)nc(Oc2c(C)cc(C)cc2C)c1C"
8.5

====

Kindly supply the reported inhibition in vivo at 3.2 mg/kg values for the records listed here.
# Test system: Rattus norvegicus
# PROTOCOL_DESCRIPTION: Ex vivo displacement of [125]oCRF from CRF1 receptor in rat cortex at 3.2 mg/kg, po
# Type: functional
Give bare numbers, in %.

Solved cases (7 shown):
• CCC(CC)Oc1cc(C)nc(Oc2c(C)cc(OC)cc2C)c1C = 75
• CCC(CC)Oc1cc(C)nc(Oc2c(C)cc(COC)cc2C)c1C = 57
• CCC(CC)Oc1cc(C)nc(Oc2c(C)cc(CO)cc2C)c1C = 42
• CCC(CC)Oc1cc(C)nc(Oc2c(C)cc(Br)cc2C)c1C = 47
• CCC(CC)Oc1cc(C)nc(Oc2c(C)cc(Cl)cc2C)c1C = 66
• CCC(CC)Oc1cc(C)nc(Oc2c(C)cc(C(N)=O)cc2C)c1C = 33
• CCOc1cc(C)c(Oc2nc(C)cc(OC(CC)CC)c2C)c(C)c1 = 43

Note: attention shifts to another entry.
Query (molecule): "CCC(CC)Oc1cc(C)nc(Oc2c(C)cc(C)cc2C)c1C" ; field requested: inhibition in vivo at 3.2 mg/kg
75
